Quick list: AUC per entry.
SYSTEM_TESTED: T1, human PVRIG-his (AcroBiosystems, Cat NO. PVG-H52H4) (human, UniProt Q6DKI7 41-171, limits assumed)
T1 construct: also called human PVRIG protein
T1 sequence (looked up): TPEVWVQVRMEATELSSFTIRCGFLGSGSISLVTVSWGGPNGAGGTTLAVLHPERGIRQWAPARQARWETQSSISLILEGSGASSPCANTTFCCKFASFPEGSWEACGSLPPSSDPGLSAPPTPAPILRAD
TEST_PROTOCOL: competition ELISA, PVRIG-His coated, competitor human PVRL2-mFc
Parameters: unit not given here
TEST_READOUT: AUC

>  <BINDER>
PVRIG-A118-H2 (Fc fusion, humanized variant of PVRIG-A118; also called A118.VH2; not shown: constant part not restated for the humanized forms; parents are VHH-hinge-CH2-CH3 of human IgG1; detected by anti-human) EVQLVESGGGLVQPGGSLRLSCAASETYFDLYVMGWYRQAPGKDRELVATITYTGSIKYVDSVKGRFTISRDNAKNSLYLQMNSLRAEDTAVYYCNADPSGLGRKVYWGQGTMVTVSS

>  <RESULT_VALUE>
1.35

$$$$
>  <BINDER>
PVRIG-A105-H4 (Fc fusion, humanized variant of PVRIG-A105; also called A105.VH4; not shown: constant part not restated for the humanized forms; parents are VHH-hinge-CH2-CH3 of human IgG1; detected by anti-human) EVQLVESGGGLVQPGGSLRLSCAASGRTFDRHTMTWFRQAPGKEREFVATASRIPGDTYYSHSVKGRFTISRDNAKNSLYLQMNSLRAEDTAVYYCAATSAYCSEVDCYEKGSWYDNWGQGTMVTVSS

>  <RESULT_VALUE>
2.32

$$$$
>  <BINDER>
PVRIG-A105-H3 (Fc fusion, humanized variant of PVRIG-A105; also called A105.VH3; not shown: constant part not restated for the humanized forms; parents are VHH-hinge-CH2-CH3 of human IgG1; detected by anti-human) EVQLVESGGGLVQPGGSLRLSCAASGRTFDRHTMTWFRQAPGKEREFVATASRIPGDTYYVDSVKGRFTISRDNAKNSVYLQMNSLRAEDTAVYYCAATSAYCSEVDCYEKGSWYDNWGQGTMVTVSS

>  <RESULT_VALUE>
2.52

$$$$
>  <BINDER>
PVRIG-A118-H6 (Fc fusion, humanized variant of PVRIG-A118; also called A118.VH6; not shown: constant part not restated for the humanized forms; parents are VHH-hinge-CH2-CH3 of human IgG1; detected by anti-human) EVQLVESGGGLVQPGGSLRLSCAASETYFDLYVMGWYRQAPGKDRELVATITYTGSIKIVDSVKGRFTISRGDAKNSLYLQMNSLRAEDTAVYYCNADPSGLGRKVYWGQGTMVTVSS

>  <RESULT_VALUE>
1.47

$$$$
>  <BINDER>
PVRIG-A118-H4 (Fc fusion, humanized variant of PVRIG-A118; also called A118.VH4; not shown: constant part not restated for the humanized forms; parents are VHH-hinge-CH2-CH3 of human IgG1; detected by anti-human) EVQLVESGGGLVQPGGSLRLSCAASETYFDLYVMGWYRQAPGKDRELVATITYTGSIKYVDSVKGRFTISRGDAKNSLSLQMNSLRAEDTAVYYCNADPSGLGRKVYWGQGTMVTVSS

>  <RESULT_VALUE>
1.42

$$$$
>  <BINDER>
PVRIG-A118-H5 (Fc fusion, humanized variant of PVRIG-A118; also called A118.VH5; not shown: constant part not restated for the humanized forms; parents are VHH-hinge-CH2-CH3 of human IgG1; detected by anti-human) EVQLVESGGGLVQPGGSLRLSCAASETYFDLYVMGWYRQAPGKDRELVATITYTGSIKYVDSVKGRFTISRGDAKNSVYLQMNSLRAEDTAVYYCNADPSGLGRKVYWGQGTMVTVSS

>  <RESULT_VALUE>
1.39

$$$$
>  <BINDER>
PVRIG-A50-H1 (Fc fusion, humanized variant of PVRIG-A50; also called A50.VH1; not shown: constant part not restated for the humanized forms; parents are VHH-hinge-CH2-CH3 of human IgG1; detected by anti-human) EVQLVESGGGLVQPGGSLRLSCAASGFTFSYYDMSWVRQAPGKGLEWVSTINSNGGRTSYVDSVKGRFTISRDNSKNTLYLQMNSLRAEDTAVYYCVEGDPHNFGLENLSLRDFGSWGQGTMVTVSS

>  <RESULT_VALUE>
2.42

$$$$
>  <BINDER>
PVRIG-A50-H1c (Fc fusion, humanized variant of PVRIG-A50; also called A50.VH1c; not shown: constant part not restated for the humanized forms; parents are VHH-hinge-CH2-CH3 of human IgG1; detected by anti-human) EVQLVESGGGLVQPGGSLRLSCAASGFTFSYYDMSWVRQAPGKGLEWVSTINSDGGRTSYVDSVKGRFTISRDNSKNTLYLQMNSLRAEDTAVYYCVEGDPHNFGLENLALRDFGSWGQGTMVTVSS

>  <RESULT_VALUE>
2.62

$$$$
